system: r5-HT1.0; assay: Dose-response of sensor fluorescence change; type: cell-based, HEK293T cells; conditions: n = 3
pEC50: −log10 of the molar value.
endpoint-name: pEC50

What measured pEC50 goes with NCCc1c[nH]c2ccc(O)cc12 [5-HT, serotonin (5-hydroxytryptamine)] ?
~6.10
